# protocol.text: EMT-state selective cytotoxicity in co-culture – imaging, PC-3E GFP, TEM4-18 mCherry, primary screen (AID 1345086);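 note: normalised mesenchymal count divided by normalised epithelial count so high means epithelial killing; cells exposed to compound for 72 h before imaging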
# study.conditions: PC-3E GFP / TEM4-18 mCherry co-culture, imaging cell counts; at 1 µM; actives lie on both sides; counts scaled to control wells, 1 = unselective
Calls of active or inactive are those of the source.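 Rule for the calls: active = compounds killing one labelled cell type while sparing the other, by normalised counts and ratio limits, not self-fluorescent; inactive = the rest.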
The reply should name one outcome from YES = active, NO = inactive

Completed entries (count: 2):
Task: Each compound tested received a call. Report the one for N[C@@H](CCC(=O)N[C@@H](CS)C(=O)NCC(=O)O)C(=O)O .
Result: NO

Task: Test call for this compound, please: CCCCCCc1ccc(O)cc1O
Result: NO

Next:
Task: # lookup: test call for CC(=O)Nc1cccc(O)c1
Result: NO

Task: Hi, do you know how CCOC(=O)C1=C(C)NC(C)=C(C(=O)OC)C1c1cccc(Cl)c1Cl (stereo not given) came out in this test?
Result: NO

Task: Would you mind telling me which call this test gave Cc1ccc(C(C)C)cc2c(C)ccc1-2 ?
Result: NO

###

# assayed.system: Mitogen-activated protein kinase 7 (Homo sapiens)
# protocol.text: Gal4-ERK5 driven luciferase induction – cell-based, HTS, primary screen (AID 1508626);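 note: luciferase driven by Gal4-ERK5 fusion binding five Gal4 sites before minimal TATA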
# study.conditions: HeLa Gal4-ERK5 transactivation, 18 h, at 5 µM, stronger effect = higher value
Active and inactive are the calls of the source.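 The calls were made as follows: active = luciferase signal above three times the same-plate solvent-only control wells; inactive = the rest.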
reported.metric: luciferase signal

The reported value for COc1ccc(C(=O)c2ccccc2O)c(O)c1 in terms of luciferase signal is 92 AU (inactive)

Others:
Short answer for Fc1ccc(C(c2ccc(F)cc2)N2CCN(C/C=C/c3ccccc3)CC2)cc1 : luciferase signal was 116 AU (inactive)

Input Nc1ccc(S(=O)(=O)Nc2cnc3ccccc3n2)cc1 . Output luciferase signal: 84 AU (inactive)

// sample CCCC(C(=O)OCCN(CC)CC)(c1ccccc1)c1ccccc1 , its luciferase signal was 60 AU (inactive)

Noted for CC1CCC(NC(=O)N(CCCl)N=O)CC1 (stereo unspecified) : its luciferase signal reads 44 AU (inactive)

The molecule OC(CCN1CCCCC1)(c1ccccc1)c1ccccc1 showed luciferase signal equal to 36 AU (inactive)

Lookup result for CCCCOc1ccc(CC(=O)NO)cc1 ; measured luciferase signal: 44 AU (inactive)

###

Overview of reported cell count across a group of compounds:
# protocol.text: viability loss with induced miR-34 in A549 – imaging, A549 dox-inducible miR-34, nuclei and caspase counts, primary screen (AID 1347080)
# study.conditions: A549 miR-34 inducible, Hoechst nuclei count, 48 h; measured here: total cells with miR-34 induction; stronger effect = lower value
Output: the number by itself.

The following compounds have reported results that may help.
Lab book: cell count of C[C@@H]1CN(c2c(F)c(F)c3c(=O)c(C(=O)O)cn(C4CC4)c3c2F)C[C@H](C)N1 noted as 8680

Reported cell count for CC1(C)O[C@@H]2C[C@H]3[C@@H]4CCC5=CC(=O)CC[C@]5(C)[C@@]4(F)[C@@H](O)C[C@]3(C)[C@]2(C(=O)CCl)O1 was 5550

Notebook: CCCCCCc1ccc(O)cc1O , cell count read as 11000

The compound identified as O=C(OCc1ccccc1)c1ccccc1 registered its cell count at 12000

More entries:
Lab note: measured cell count of O=C(O)c1cc(O)c(O)c(O)c1 was 11500

For this compound ( CCOC(N)=O ), measured cell count is 11200

Item: O=c1c(-c2ccccc2)c1-c1ccccc1 | cell count: 4690

Please fill in: cell count reported for O=C(COc1ccc(Cl)cc1)N1CCN(Cc2ccc3c(c2)OCO3)CC1 = 8260

# cell count of COCc1c(C(C)C)nc(C(C)C)c(/C=C/[C@@H](O)C[C@@H](O)CC(=O)O)c1-c1ccc(F)cc1 = 1320

Notebook: COc1cc(C)c(Cc2cnc(N)nc2N)cc1OC , cell count read as 9440

Looking up Nc1c2ccccc2nc2ccccc12 , I found its cell count recorded as 782

// recorded cell count for NC[C@H]1O[C@H](O[C@H]2[C@H](O)[C@@H](O[C@H]3O[C@H](CO)[C@@H](O)[C@H](N)[C@H]3O)[C@H](N)C[C@@H]2N)[C@H](N)[C@@H](O)[C@@H]1O : 11700

The compound listed as Cc1onc(-c2ccccc2)c1C(=O)N[C@@H]1C(=O)N2[C@@H]1SC(C)(C)[C@@H]2C(=O)O shows cell count equal to 9940

Entry C#C[C@]1(O)CC[C@H]2[C@@H]3CCc4cc(OC)ccc4[C@H]3CC[C@@]21C ; cell count = 9180

The compound identified as OC[C@H]1O[C@@H](O[C@@H]2[C@@H](CO)O[C@](O)(CO)[C@H]2O)[C@H](O)[C@@H](O)[C@H]1O registered its cell count at 11500

Record CCOC(=O)OC(C)OC(=O)[C@@H]1N2C(=O)[C@@H](NC(=O)[C@H](N)c3ccccc3)[C@H]2SC1(C)C (stereo partly specified) . Reported cell count: 8230

###

# Tested on: R275C/beta2Delta
# protocol.text: BK channel mutant inhibitors and activators – cell-based, U2OS BacMam, thallium flux, beta subunits, selectivity assay, profiling panel (AID 1259406);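 note: initial slope of Thallos dye fluorescence rise after thallium is added; log ratio against the mean of 0.3% DMSO vehicle wells on the same plate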
# study.conditions: U2OS BacMam BK variants, at 30 µM
reported.metric: log fold change Tl+ flux
Response field accepts a number only; no unit should be typed.

The following molecules have reported results that may help.
log fold change Tl+ flux in this record for Nc1ccn([C@H]2CC[C@@H](CO)O2)c(=O)n1 : -0.00877

Sample NC1CCN(c2nc3c(cc2F)c(=O)c(C(=O)O)cn3-c2ccc(F)cc2F)C1 (stereo unspecified) ; log fold change Tl+ flux observed: -0.0395

Input Cc1c(O)cccc1C(=O)N[C@@H](CSc1ccccc1)[C@H](O)CN1C[C@H]2CCCC[C@H]2C[C@H]1C(=O)NC(C)(C)C . Output log fold change Tl+ flux: -0.0795

Please fill in: log fold change Tl+ flux reported for CC(C)NCC(O)COc1ccc(CCOCC2CC2)cc1 (stereo unspecified) = -0.0652

The reported log fold change Tl+ flux of the molecule c1cnc(N2CCN(Cc3ccc4c(c3)OCO4)CC2)nc1 was -0.006

Further cases:
Measured log fold change Tl+ flux, O=C1[C@H]2CCCC[C@H]2C(=O)N1CCCCN1CCN(c2nsc3ccccc23)CC1 : 0.0344

Looking up Nc1nnc(-c2cccc(Cl)c2Cl)c(N)n1 , I found its log fold change Tl+ flux recorded as 0.0465

# molecule O=C1CCc2ccc(OCCCCN3CCN(c4cccc(Cl)c4Cl)CC3)cc2N1 ; its log fold change Tl+ flux = 0.0181

// NC(=O)OCC(COC(N)=O)c1ccccc1 : log fold change Tl+ flux value = 0.019

molecule CCOC(=O)C1=C(C)NC(C)=C(C(=O)OC)C1c1cccc(Cl)c1Cl (stereo unspecified) , log fold change Tl+ flux observed: 0.0156

Lab note: C[C@]12C[C@H](O)[C@H]3[C@@H](CCC4=CC(=O)CC[C@@]43C)[C@@H]1CC[C@@H]2C(=O)CO gave log fold change Tl+ flux of 0.0285

###

The entries below come with measured viability values attached.
# protocol.text: drug combination growth inhibition, ovarian cancer – cell-based, oncology-focused library, rucaparib conditional, profiling panel (AID 1508598)
# study.conditions: patient-derived ovarian cancer cells, CellTiter-Glo viability, 144 h; at 0.00122 µM; OCI-C5x cells; with rucaparib 10 µM; stronger effect = lower value; 100% = cells with rucaparib alone
Give a bare numeral; the unit % is implied.

Measured viability, CC(c1cc2ccccc2s1)N(O)C(N)=O (centres undefined) : 98.9

Briefly, viability measured for Cn1nnc2c(C(N)=O)ncn2c1=O : 103

Record summary for CC(C)(C#N)c1cc(Cn2cncn2)cc(C(C)(C)C#N)c1 : reported viability = 107

The recorded viability for entry COc1cc2c(N3CCN(C(=O)Nc4ccc(OC(C)C)cc4)CC3)ncnc2cc1OCCCN1CCCCC1 equals 104

###

# protocol.text: reduced SW480 viability measured with CellTiter-Glo, NPC library, primary (AID 1117343)
# study.conditions: CellTiter-Glo luminescence; at 20 µM (top of the series)
reported.metric: viability decrease (inhibition) (%)
I only need the number, in %, no unit after it.

# annotated cases, reported viability decrease (inhibition) shown
Looking up CCOc1cc(N)c(Cl)cc1C(=O)NCC1CN(Cc2ccc(F)cc2)CCO1 (centres undefined) , I found its viability decrease (inhibition) recorded as 44.8

Measured viability decrease (inhibition), O=c1[nH]c(=O)n([C@H]2C[C@H](O)[C@@H](CO)O2)cc1F : 93.2

Notebook: NS(=O)(=O)c1cc2c(cc1Cl)NC(C1CC3C=CC1C3)NS2(=O)=O (centres undefined) , viability decrease (inhibition) read as 8.9

More entries:
Looking up Cc1cc2c(C(C)C)c(O)c(O)c(C=O)c2c(O)c1-c1c(C)cc2c(C(C)C)c(O)c(O)c(C=O)c2c1O , I found its viability decrease (inhibition) recorded as 108
